Target: SARS-CoV-2 RBD extracellular domain expressed with a C-terminal mouse IgG2a (SARS-COV-2 RBD-mFc) (SARS-CoV-2)
OUTCOME MEASURE: koff

# count of solved cases: 2
BINDER	koff
mAb10935 (antibody, V domains shown) VH: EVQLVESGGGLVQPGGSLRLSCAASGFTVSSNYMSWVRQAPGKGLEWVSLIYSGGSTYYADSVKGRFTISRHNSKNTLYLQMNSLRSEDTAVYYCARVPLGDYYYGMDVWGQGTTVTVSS VL: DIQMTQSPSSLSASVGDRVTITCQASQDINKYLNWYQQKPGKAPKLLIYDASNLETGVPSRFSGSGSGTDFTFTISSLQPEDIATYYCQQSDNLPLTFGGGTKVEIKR	≤ 1e-05 s⁻¹
mAb10971 (antibody, V domains shown) VH: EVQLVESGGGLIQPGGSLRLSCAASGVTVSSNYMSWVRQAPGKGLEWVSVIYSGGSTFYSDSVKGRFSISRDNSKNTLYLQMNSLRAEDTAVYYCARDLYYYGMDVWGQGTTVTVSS VL: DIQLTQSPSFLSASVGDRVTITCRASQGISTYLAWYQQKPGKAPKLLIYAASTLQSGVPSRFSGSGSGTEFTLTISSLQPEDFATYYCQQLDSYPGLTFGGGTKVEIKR	≤ 1e-05 s⁻¹

Pending binder:
Challenge: Could you tell me which koff is on file for mAb10921 (antibody, V domains shown) VH: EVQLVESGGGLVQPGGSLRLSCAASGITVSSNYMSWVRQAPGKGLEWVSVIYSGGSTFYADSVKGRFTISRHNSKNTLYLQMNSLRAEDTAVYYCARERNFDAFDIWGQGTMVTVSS VL: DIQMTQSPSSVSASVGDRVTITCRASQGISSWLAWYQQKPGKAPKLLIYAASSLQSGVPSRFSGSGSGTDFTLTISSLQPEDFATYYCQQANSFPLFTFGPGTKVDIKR ?
Response given: ≤ 1e-05 s⁻¹
